experiment: Half life in Sprague-Dawley rat at 2.5 mg/kg, iv; assay type: ADME, organism-based; set-up: dose 2.5 mg/kg, route intravenous; settings: in vivo
Metric Name: half-life (h)

In the examples that follow, each entry is paired with its recorded half-life.
The compound listed as `Nc1ccccc1NC(=O)c1ccc(Cn2cnc3ccsc3c2=O)cc1` has a reported half-life of 1.4

The recorded half-life for `CN(C)CCn1c(=O)n(Cc2ccc(C(=O)Nc3ccccc3N)cc2)c(=O)c2ccccc21` is 2.1

For this compound ( `CCn1c(=O)n(Cc2ccc(C(=O)Nc3ccccc3N)cc2)c(=O)c2sccc21` ), measured half-life is 1.2

A. Cc1nc2ccccc2c(=O)n1Cc1ccc(C(=O)Nc2ccccc2N)cc1
B. Nc1ccccc1NC(=O)c1ccc(CN2Cc3ccccc3C2=O)cc1
C. Nc1ccccc1NC(=O)c1ccc(Cn2c(=O)[nH]c3ccsc3c2=O)cc1
Could you please order the items by half-life, going from the lowest number to the highest? The labels, placed in the requested order, form the answer. B, A, C

###

assay: Oral bioavailability in Sprague-Dawley rat at 5.0 mg/kg, po; type: ADME, organism-based; conditions: in vivo
Metric Name: bioavailability (%)

Recorded results for 4 molecules are shown here.
The molecule listed as `CCn1c(=O)n(Cc2ccc(C(=O)Nc3ccccc3N)cc2)c(=O)c2sccc21` shows bioavailability equal to 64

// `CN(C)CCn1c(=O)n(Cc2ccc(C(=O)Nc3ccccc3N)cc2)c(=O)c2ccccc21` : bioavailability value = 38

The recorded bioavailability for entry `Nc1ccccc1NC(=O)c1ccc(Cn2cnc3ccsc3c2=O)cc1` equals 47

Kindly note the recorded bioavailability for `Nc1ccccc1NC(=O)c1ccc(CN2Cc3ccccc3C2=O)cc1` , which is 34

I. Nc1ccccc1NC(=O)c1ccc(Cn2c(=O)[nH]c3ccsc3c2=O)cc1
II. Cc1nc2ccccc2c(=O)n1Cc1ccc(C(=O)Nc2ccccc2N)cc1
Hi team, can someone confirm which has the larger bioavailability: I or II ? Thanks. Reply briefly: the label of your chosen item. I
(I: 47%, II: 16%)

###

test system: HMEC; assay: Antiproliferative activity against human HMEC cells by MTT assay; format: cell-based
Items are presented alongside their recorded IC50.
Please respond with the number in µM and leave the unit unwritten.

Entry `Nc1ccccc1NC(=O)c1ccc(Cn2nnc3ccccc3c2=O)cc1` , IC50 reported as 17

Record `CCn1c(=O)n(Cc2ccc(C(=O)Nc3ccccc3N)cc2)c(=O)c2ccccc21` , field IC50: 25

The compound listed as `Nc1ccccc1NC(=O)c1ccc(Cn2c(=O)oc3ccccc3c2=O)cc1` has a reported IC50 of 21

---
The measured IC50 associated with `Nc1ccccc1NC(=O)c1ccc(Cn2c(=O)[nH]c3ccsc3c2=O)cc1` reads 29

###

biological target: Histone deacetylase 1 (Homo sapiens); test: Inhibition of human recombinant HDAC1 expressed in insect Sf9 cells
Sequence (Q13547 whole entry): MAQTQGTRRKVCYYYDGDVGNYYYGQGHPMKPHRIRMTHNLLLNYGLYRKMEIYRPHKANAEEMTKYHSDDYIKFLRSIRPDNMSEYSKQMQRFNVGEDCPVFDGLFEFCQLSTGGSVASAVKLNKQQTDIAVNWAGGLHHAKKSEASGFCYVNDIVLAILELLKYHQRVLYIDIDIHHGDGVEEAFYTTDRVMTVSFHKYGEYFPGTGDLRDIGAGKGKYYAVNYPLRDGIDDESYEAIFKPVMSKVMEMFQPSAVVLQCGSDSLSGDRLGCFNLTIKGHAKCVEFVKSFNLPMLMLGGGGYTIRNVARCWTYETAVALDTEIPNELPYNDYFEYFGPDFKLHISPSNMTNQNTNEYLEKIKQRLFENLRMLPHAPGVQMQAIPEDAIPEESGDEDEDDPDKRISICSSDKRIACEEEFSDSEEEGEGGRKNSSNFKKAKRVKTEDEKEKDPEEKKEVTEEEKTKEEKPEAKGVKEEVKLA
pIC50: −log10 of the molar value.
Metric Name: pIC50

Known results for molecules:
Notebook: Nc1ccccc1NC(=O)c1ccc(CC2COc3ccccc3C2=O)cc1 (stereo not given) , pIC50 read as 7.05

The molecule listed as `Nc1ccccc1NC(=O)c1ccc(Cn2nnc3ccccc3c2=O)cc1` has a reported pIC50 of 6.70

// `CN(C)CCn1c(=O)n(Cc2ccc(C(=O)Nc3ccccc3N)cc2)c(=O)c2ccccc21` : pIC50 value = 6.52

Entry under test: Nc1ccccc1NC(=O)c1ccc(CC2Cc3ccccc3C2=O)cc1 (stereo not given) . Its pIC50 was 7.00

The molecule listed as `CCn1c(=O)n(Cc2ccc(C(=O)Nc3ccccc3N)cc2)c(=O)c2ccccc21` has a reported pIC50 of 6.70

1. Nc1ccccc1NC(=O)c1ccc(Cn2c(=O)oc3ccccc3c2=O)cc1
2. Nc1ccccc1NC(=O)c1ccc(Cn2cnc3ccsc3c2=O)cc1
// compare: 1 vs 2 , metric pIC50, want the smaller # reply format: chosen label 2
(2: 6.70, 1: 7.00)

P. Nc1ccccc1NC(=O)c1ccc(CN2C(=O)c3ccccc3C2=O)cc1
Q. Cn1c(=O)n(Cc2ccc(C(=O)Nc3ccccc3N)cc2)c(=O)c2ccccc21
Which gives the smaller pIC50 number: P or Q ? Bench note: the answer is the label of the chosen record. P
(P: 6.70, Q: 7.00)
